B1: tRNA (parent)
chain: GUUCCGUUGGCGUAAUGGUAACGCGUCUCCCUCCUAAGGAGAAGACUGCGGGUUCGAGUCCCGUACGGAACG

variants of: B1; test: yeast fitness relative to wild type (ratio to wild type); higher = fitter; tRNA-Arg(CCU), competitive growth, 37 C, YPD
Variants at the floor of the assay were thinned out.
This listing pairs variants with measured yeast fitness.
endpoint_label: yeast fitness

> print(dat)
                              chain.sequence  relation  reported.measurement
 1  GUUCCAUUGGCGUAAUGGUAACGCGUCUCCCUCAUAAGGAGAAGAUUGCGGGUUCGAGUCCCGUCCGGAACG         ≤                   0.5
 2  GUUCCGUUGGCGUAAUGGUAACGCGUCUCCCUCCUUUGGAGAAGACUGCGGGUUUGAGUCCCGUACGGAACG         =                 0.634
 3  GUUCCGUUGGCGUAAUGGUAGCGCGUCUCCCUCAUAAGGAGAAGACUGCGGGUUCGAGUCCCGUACGGAACG         =                 0.646
 4  GUUCUGUUGGCGUAAUGGCAACGCGUCUCCCUCCUAAGGAGAAGACUGCGGGUUCGAGUCCCGUAUGGAACG         =                  0.82
 5  GUUCCGUUGGCGUAAUGGUAACGCGUCUCCCUCCUGAGGAGAAGACUGCGGGUUCGGGUCUCGUACGGAACG         =                  0.56
 6  GUUACGUUGGCGUAAUGGUAACGCGUCUCCCUCCUAAGGAGAAGACUGCGCGUACCAGUCCCGUACGGAACG         ≤                   0.5
 7  GUUCCGUUGGCGUAAUGGUAACGCGUCUCCCUCCUAAGGAGUAGAUUGCGGGUUCGAGUCCCGUACGGCACG         =                   0.9
 8  GUUCCGUUGGCGAAAUGGUCACGCGUCUCCCUCUUAAGGAGAAGACUGCCGGUUCGAGUCCCGUACGGUACG         ≤                   0.5
 9  GCUCCGUUGGCGUAAUGGUAACGAGUCUCCCUCCUAAGGAGAAGACUGCGGGUUCGAGUCCCGUAUGGAACG         =                  0.61
10  GUUCCGUUGGCGUACUCGUAACGCGUCUCCAUCCUAAGGAGAACACUGCGGGUUCGAGUCCCGUACGGAGCG         ≤                   0.5

Origin of the recorded values: the RNAGym collection of RNA variant scans (doi:10.1126/science.aae0568)
